assay: in vitro; type: cell-based; conditions: human, Example 19, Table 6, Run 1, XTT; read-out: TC50 [μM] Run 1
Answer each item with its documented CC50.

Qu. Which value of CC50 has been reported for "C#CCOCCOCCOCCC1CCN(CCNC(=O)c2ncn(-c3ncc(OC)c4c(C(=O)C(=O)N5CCC(=C(C#N)c6ccccc6)CC5)c[nH]c34)n2)CC1" in the records?
Ans. > 10 µM

Qu. Which CC50 reading was recorded for the compound "C#CCOCCOCCNC(=N)NCCNC(=O)c1csc(-c2ncc(OC)c3c(C(=O)C(=O)N4CCC(=C(C#N)c5ccccc5)CC4)c[nH]c23)n1" ?
Ans. > 10 µM

Qu. Bench note: what CC50 did COc1cc(-c2ccc(/N=N/c3ccc4c(S(=O)(=O)O)cc(S(=O)(=O)O)c(N)c4c3O)c(OC)c2)ccc1/N=N/c1ccc2c(S(=O)(=O)O)cc(S(=O)(=O)O)c(N)c2c1O [CSB, Chicago Sky Blue, reference compound] show?
Ans. > 10 µM

Qu. Could you tell me which CC50 is on file for "C#CCOCCOCCOCCOCCC(=O)NCc1ncn(-c2ncc(OC)c3c(C(=O)C(=O)N4CCN(C(=O)c5ccccc5)CC4)c[nH]c23)n1" ?
Ans. > 0.5 µM

Qu. # CC50 lookup, item "COc1cnc(-n2cnc(COCC(=O)NCCOCCOCCOCCOCCOCCON)n2)c2[nH]cc(C(=O)C(=O)N3CCN(C(=O)c4ccccc4)CC3)c12"
Ans. > 0.5 µM

Qu. Tell me the measured CC50 of "C#CCOCCOCCOCCOCCOc1cnc(-n2cnc(C)n2)c2[nH]cc(C(=O)C(=O)N3CCN(C(=O)c4ccccc4)CC3)c12" , please.
Ans. > 10 µM

Qu. Requested read-out: CC50. Entry: "C#CCOCCOCCNC(=N)NCCNC(=O)c1csc(-c2ncc(OC)c3c(C(=O)C(=O)N4CCN(C(=O)c5ccccc5)CC4)c[nH]c23)n1"
Ans. > 10 µM

Qu. Looking for the measured CC50 of "C#CCOCCOCCOCCOCCNC(=O)c1nc(-c2ncc(OC)c3c(C(=O)C(=O)N4CCC(=C(C#N)c5ccccc5)CC4)c[nH]c23)cs1" , can you help?
Ans. > 10 µM

Qu. Which CC50 reading was recorded for the compound "C#CCOCCOCCOCCOCCNC(=O)c1csc(-c2ncc(OC)c3c(C(=O)C(=O)N4CCN(C(=O)c5ccccc5)CC4)c[nH]c23)n1" ?
Ans. > 10 µM

Qu. Reported CC50, compound "C#CCOCCOCCOCCOCCNC(=O)COCc1ncn(-c2ncc(OC)c3c(C(=O)C(=O)N4CCN(C(=O)c5ccccc5)CC4)c[nH]c23)n1" : ____
Ans. > 0.5 µM

###

assay: in vitro; assay type: cell-based; conditions: human, Example 11, Table 5, XTT; read-out: TC50 (the source's name)
Please respond with reported CC50 for every item in the list.

Qu. State the recorded CC50 for this entry: "C#CCOCCOCCOCCOCCC(=O)NCc1ncn(-c2ncc(OC)c3c(C(=O)C(=O)N4CCN(C(=O)c5ccccc5)CC4)c[nH]c23)n1"
Ans. > 0.5 µM

Qu. Tell me the measured CC50 of "COc1cnc(-n2cnc(COCC(=O)NCCOCCOCCOCCOCCOCCON)n2)c2[nH]cc(C(=O)C(=O)N3CCN(C(=O)c4ccccc4)CC3)c12" , please.
Ans. > 0.5 µM

Qu. Would you kindly share the measured CC50 for "C#CCOCCOCCOCCOCCNC(=O)COCc1ncn(-c2ncc(OC)c3c(C(=O)C(=O)N4CCN(C(=O)c5ccccc5)CC4)c[nH]c23)n1" ?
Ans. > 0.5 µM

Qu. Given "C#CCOCCOCCNC(=N)NCCNC(=O)c1csc(-c2ncc(OC)c3c(C(=O)C(=O)N4CCC(=C(C#N)c5ccccc5)CC4)c[nH]c23)n1" , state its recorded CC50.
Ans. > 10 µM

Qu. Requested read-out: CC50. Entry: "C#CCOCCOCCNC(=N)NCCNC(=O)c1csc(-c2ncc(OC)c3c(C(=O)C(=O)N4CCN(C(=O)c5ccccc5)CC4)c[nH]c23)n1"
Ans. > 10 µM

Qu. // CC50 lookup, key: COc1cc(-c2ccc(/N=N/c3ccc4c(S(=O)(=O)O)cc(S(=O)(=O)O)c(N)c4c3O)c(OC)c2)ccc1/N=N/c1ccc2c(S(=O)(=O)O)cc(S(=O)(=O)O)c(N)c2c1O [CSB, Chicago Sky Blue, reference compound]
Ans. > 10 µM

###

assay: in vitro; assay type: cell-based; details: human, Example 11, Table 5, XTT; read-out: TC50 (the source's name)
Assignment: determine reported CC50 for the given molecules.

Qu. Sample "C#CCOCCOCCOCCOCCNC(=O)c1csc(-c2ncc(OC)c3c(C(=O)C(=O)N4CCN(C(=O)c5ccccc5)CC4)c[nH]c23)n1" — what was its CC50?
Ans. > 10 µM

Qu. Which CC50 is listed for "C#CCOCCOCCOCCOCCOc1cnc(-n2cnc(C)n2)c2[nH]cc(C(=O)C(=O)N3CCN(C(=O)c4ccccc4)CC3)c12" ?
Ans. > 10 µM

Qu. What value of CC50 has been reported for the following molecule? "C#CCOCCOCCOCCOCCNC(=O)c1nc(-c2ncc(OC)c3c(C(=O)C(=O)N4CCC(=C(C#N)c5ccccc5)CC4)c[nH]c23)cs1"
Ans. > 10 µM

###

Provide the reported CC50 of each item.
assay: in vitro; format: cell-based; conditions: human, Example 19, Table 6, Run 2, XTT; read-out: TC50 [μM] Run 2

Qu. Consider the molecule shown here: COc1cc(-c2ccc(/N=N/c3ccc4c(S(=O)(=O)O)cc(S(=O)(=O)O)c(N)c4c3O)c(OC)c2)ccc1/N=N/c1ccc2c(S(=O)(=O)O)cc(S(=O)(=O)O)c(N)c2c1O [CSB, Chicago Sky Blue, reference compound] What is its recorded CC50?
Ans. > 10 µM

Qu. If you can, please state the reported CC50 value of C#CCOCCOCCOCCOCC(O)CNC(=O)c1nc(-c2ncc(OC)c3c(C(=O)C(=O)N4CCC(=C(C#N)c5ccccc5)CC4)c[nH]c23)cs1 (stereo not drawn) [Int-4] .
Ans. > 10 µM

Qu. Name the recorded CC50 for C#CCOCCOCCOCCOCCNC(=O)c1ncn(-c2ncc(OC)c3c(C(=O)C(=O)N4CCC(=C(C#N)c5ccccc5)CC4)c[nH]c23)n1 [Int-2] .
Ans. > 10 µM
